Data provenance: ChEMBL document CHEMBL1143164

SYSTEM_TESTED: MAP kinase-activated protein kinase 2 (Homo sapiens, UniProt P49137)
Sequence (P49137 whole entry): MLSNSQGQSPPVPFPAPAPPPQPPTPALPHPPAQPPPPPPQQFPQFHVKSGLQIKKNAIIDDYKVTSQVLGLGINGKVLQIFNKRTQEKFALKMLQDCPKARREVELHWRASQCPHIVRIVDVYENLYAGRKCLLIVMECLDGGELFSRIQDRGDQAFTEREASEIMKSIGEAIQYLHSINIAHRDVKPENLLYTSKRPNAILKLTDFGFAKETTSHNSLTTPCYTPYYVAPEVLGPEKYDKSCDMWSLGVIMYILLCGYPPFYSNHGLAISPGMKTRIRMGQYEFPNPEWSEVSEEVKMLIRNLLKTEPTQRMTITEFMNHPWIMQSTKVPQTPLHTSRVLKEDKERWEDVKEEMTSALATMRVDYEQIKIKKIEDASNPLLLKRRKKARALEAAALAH
MEASUREMENT_NOTES: Inhibition of MK2
ASSAY_ENDPOINT: IC50

1) COC[C@H]1OC(=O)/C(=C/N(CCO)C(C)(C)C)C2=C(O)C(=O)C3=C([C@H](OC(C)=O)C[C@]4(C)[C@@H](O)CC[C@@H]34)[C@]21C	> 200 µM

Now examine the next entry.
response.value for COC[C@H]1OC(=O)/C(=C/N(C)CCCN(C)C)C2=C(O)C(=O)C3=C([C@H](OC(C)=O)C[C@]4(C)[C@@H](O)CC[C@@H]34)[C@]21C (field: IC50) = > 200 µM

* * *

Assay read-out IC50; system under study: Serine/threonine-protein kinase mTOR (Homo sapiens, UniProt P42345).
Express the result in nM but write the number alone.

1. COC[C@H]1OC(=O)/C(=C/N2CCOCC2)C2=C(O)C(=O)C3=C([C@H](OC(C)=O)C[C@]4(C)[C@@H](O)CC[C@@H]34)[C@]21C	831

response.value for COC[C@H]1OC(=O)/C(=C/N(C)CCCN2CCOCC2)C2=C(O)C(=O)C3=C([C@H](OC(C)=O)C[C@]4(C)[C@@H](O)CC[C@@H]34)[C@]21C (field: IC50) = 2290

response.value for C=CCN(/C=C1/C(=O)O[C@H](COC)[C@@]2(C)C1=C(O)C(=O)C1=C2[C@H](OC(C)=O)C[C@]2(C)C(=O)CC[C@@H]12)CC=C (field: IC50) = 3100

response.value for CCCCN(C)/C=C1/C(=O)O[C@H](COC)[C@@]2(C)C1=C(O)C(=O)C1=C2[C@H](OC(C)=O)C[C@]2(C)[C@@H](O)CC[C@@H]12 (field: IC50) = 8700

* * *

SYSTEM_TESTED: Vascular endothelial growth factor receptor 2 (Homo sapiens, UniProt P35968)
Sequence (P35968 whole entry): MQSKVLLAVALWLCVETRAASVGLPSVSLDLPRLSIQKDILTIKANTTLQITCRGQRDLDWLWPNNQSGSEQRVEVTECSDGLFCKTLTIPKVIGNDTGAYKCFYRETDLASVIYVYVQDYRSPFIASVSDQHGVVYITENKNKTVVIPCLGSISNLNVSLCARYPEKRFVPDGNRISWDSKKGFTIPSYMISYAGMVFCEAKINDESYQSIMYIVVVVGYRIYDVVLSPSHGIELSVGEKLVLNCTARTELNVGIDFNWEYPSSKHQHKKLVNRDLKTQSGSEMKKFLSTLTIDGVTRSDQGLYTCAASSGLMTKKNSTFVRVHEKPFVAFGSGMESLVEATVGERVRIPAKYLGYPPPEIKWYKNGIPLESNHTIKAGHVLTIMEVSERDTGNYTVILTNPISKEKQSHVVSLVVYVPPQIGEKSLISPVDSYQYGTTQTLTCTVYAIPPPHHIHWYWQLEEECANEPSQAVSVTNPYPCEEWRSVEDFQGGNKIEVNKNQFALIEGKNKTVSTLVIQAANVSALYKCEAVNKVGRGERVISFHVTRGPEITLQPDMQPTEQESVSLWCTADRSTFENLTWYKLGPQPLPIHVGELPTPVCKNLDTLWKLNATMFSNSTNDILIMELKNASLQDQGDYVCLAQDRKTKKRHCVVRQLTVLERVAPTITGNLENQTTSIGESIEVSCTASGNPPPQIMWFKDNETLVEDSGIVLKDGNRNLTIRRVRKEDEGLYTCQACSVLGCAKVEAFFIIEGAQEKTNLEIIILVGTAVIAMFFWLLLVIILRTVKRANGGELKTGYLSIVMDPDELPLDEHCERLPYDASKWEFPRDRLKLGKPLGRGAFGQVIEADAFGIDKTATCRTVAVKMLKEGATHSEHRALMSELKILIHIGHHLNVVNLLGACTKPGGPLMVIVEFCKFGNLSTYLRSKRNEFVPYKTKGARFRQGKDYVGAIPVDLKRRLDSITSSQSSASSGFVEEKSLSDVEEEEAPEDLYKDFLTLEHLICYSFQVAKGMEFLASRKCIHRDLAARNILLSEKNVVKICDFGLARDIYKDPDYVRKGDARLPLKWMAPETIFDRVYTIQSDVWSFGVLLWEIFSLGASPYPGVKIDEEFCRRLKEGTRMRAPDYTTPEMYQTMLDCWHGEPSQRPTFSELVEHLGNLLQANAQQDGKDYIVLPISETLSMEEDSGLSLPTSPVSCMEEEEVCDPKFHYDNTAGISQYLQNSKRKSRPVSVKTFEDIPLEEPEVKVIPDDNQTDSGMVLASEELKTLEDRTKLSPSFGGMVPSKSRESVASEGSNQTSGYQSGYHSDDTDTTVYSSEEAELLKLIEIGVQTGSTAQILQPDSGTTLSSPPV
# IC50 annotations

1) COC[C@H]1OC(=O)/C(=C/N(C)CCCN(C)C)C2=C(O)C(=O)C3=C([C@H](OC(C)=O)C[C@]4(C)[C@@H](O)CC[C@@H]34)[C@]21C	> 10 µM

Let me check: COC[C@H]1OC(=O)/C(=C/N(CCO)C(C)(C)C)C2=C(O)C(=O)C3=C([C@H](OC(C)=O)C[C@]4(C)[C@@H](O)CC[C@@H]34)[C@]21C , system Vascular endothelial growth factor receptor 2 (Homo sapiens, UniProt P35968), measured IC50 is > 10 µM

* * *

System: LNCaP
MEASUREMENT_NOTES: Growth inhibition of human LNCap cells
Assay type: functional, cell-based
Output schema: class label derived from IC50. Mapping: group A (below 300 nM), group B (300 nM to below 1000 nM), group C (1000 nM or more)

1) COC[C@H]1OC(=O)/C(=C/N2CCN(C)CC2)C2=C(O)C(=O)C3=C([C@H](OC(C)=O)C[C@]4(C)[C@@H](O)CC[C@@H]34)[C@]21C	group C
2) COC[C@H]1OC(=O)/C(=C/N2CCC(C(=O)O)CC2)C2=C(O)C(=O)C3=C([C@H](OC(C)=O)C[C@]4(C)[C@@H](O)CC[C@@H]34)[C@]21C	group B

Quick check: band for CCCCN(C)/C=C1/C(=O)O[C@H](COC)[C@@]2(C)C1=C(O)C(=O)C1=C2[C@H](OC(C)=O)C[C@]2(C)[C@@H](O)CC[C@@H]12 group A

Quick check: band for COC[C@H]1OC(=O)/C(=C/N(CCO)C(C)(C)C)C2=C(O)C(=O)C3=C([C@H](OC(C)=O)C[C@]4(C)[C@@H](O)CC[C@@H]34)[C@]21C group A

Quick check: band for COC[C@H]1OC(=O)/C(=C/N2CCN(c3ccccc3)CC2)C2=C(O)C(=O)C3=C([C@H](OC(C)=O)C[C@]4(C)[C@@H](O)CC[C@@H]34)[C@]21C group B
